Please consider the recorded Ki for Carbonic anhydrase 9 (Homo sapiens, UniProt Q16790) in what follows.
VALUE TYPE: Ki (µM)

Below, each entry is followed by its recorded Ki result.
RECORD SMILES	ENDPOINT UNIT	Ki
NS(=O)(=O)c1ccc(C(=O)N2CCN(C(=O)c3cc4ccccc4[nH]3)CC2)cc1	µM	0.0092
NS(=O)(=O)c1ccc(C(=O)N2CCN(C(=O)c3cccs3)CC2)cc1	µM	3.28
NS(=O)(=O)c1ccc(C(=O)N2CCN(C(=O)c3ccc(Cl)s3)CC2)cc1	µM	0.382
Cc1ccoc1C(=O)N1CCN(C(=O)c2ccc(S(N)(=O)=O)cc2)CC1	µM	3.05

I = NS(=O)(=O)c1ccc(C(=O)N2CCN(C(=O)c3sccc3Br)CC2)cc1
II = NS(=O)(=O)c1ccc(C(=O)N2CCN(C(=O)c3ccc[nH]3)CC2)cc1
stdin: Hi there, can you help? I need to know whether I or II has lower measured Ki. I would appreciate it if you answered with the label of your choice.
stdout: I
(I: 0.125 µM, II: 0.277 µM)
